assay info: Pharmacokinetics in ICR mice after intravenous and intragastric administration
Format: in vivo
experimental context: male, ICR, mouse, plasma, iv, 2 mg/kg, IV 2 mg/kg, ICR mice, individual animal; read-out: MRT(0-∞)
parameter: MRT inf (h)
Numbers only; they are read as h.

Take a look at these entries with their results.
compound: COc1ccc(-c2nc3c(n2C(C)C)[C@@]2(C(=O)Nc4cc(Cl)ccc42)N(c2cc(Cl)ccc2C)C3=O)c(OC)c1 [Example S-9]
MRT inf, h: 1.88
--
compound: COc1cc(N(C)C)ccc1-c1nc2c(n1C(C)C)[C@@]1(C(=O)Nc3cc(Cl)ccc31)N(c1cc(Cl)ccc1C)C2=O [Example S-23]
MRT inf, h: 2.46

Then this compound:
Query: MRT inf; subject: COc1ncc(-c2nc3c(n2C(C)C)[C@H](c2ccc(Cl)cc2)N(c2cc(Cl)cn(C)c2=O)C3=O)c(OC)n1 [HDM201, reference compound] 0.75
